# protocol.notes: qHTS Validation assay for Inhibitors of Plasmodium falciparum Dd2 growth in vitro; further: nearly all actives have a fitted effect of over 70% in size
# assay.context: P. falciparum Dd2 in RBCs, SYBR Green growth, 72 h; series mostly up to 28.7 µM
Out of some 4,100 compounds screened, about 1,600 (39%) were called active. Inconclusive results (about 25%) are left out. The call rests on the fitted dose curve; in most records, active means well fitted inhibition curve with a large enough effect; inconclusive means small, poorly fitted or top-dose-only effect; inactive means no such curve, though single readings can be large or run the other way. This is one part of the list.
Labels: active, inactive

compound: CCCn1c(=N)c(C(=O)NCc2ccc3c(c2)OCO3)cc2c(=O)n3cccc(C)c3nc21
class: active
--
compound: CCCn1c(=N)c(C(=O)NC2CCCC2)cc2c(=O)n3cccc(C)c3nc21
class: active
--
compound: COc1ccc(C(=O)/C=C/Nc2cc(C)ccn2)cc1
class: inactive
--
compound: COc1ccc(S(=O)(=O)N2CCC(Oc3ncccc3C(=O)N3CCOCC3)C2)cc1 (stereo not given)
class: inactive
--
compound: CC(=O)N1CCCN(C(=O)c2c[nH]c3ncccc23)CC1
class: inactive
--
compound: COc1ccc(N(CC(=O)NCc2ccccc2)C(=O)CCC(=O)Nc2cc(C)ccn2)c(OC)c1
class: active
--
compound: O=C(Nc1ccc([C@@H](O)[C@H]2COCC(=O)N2Cc2ccc(F)cc2)cc1)c1ccc2c(c1)OCO2
class: inactive
--
compound: c1cnc(N2CCOCC2)c(OC2CCNC2)n1 (stereo not given)
class: active
--
compound: COc1ccc(-c2nnc([C@H]3CCN(c4ncccn4)C3)o2)cc1
class: inactive
--
compound: COc1ccc(-c2cnc3[nH]cc(CC(=O)NCc4cccnc4)c3c2)cc1OC
class: active
--
compound: CCCn1c(=N)c(C(=O)NC2CCCCC2)cc2c(=O)n3cc(C)ccc3nc21
class: inactive
--
compound: O=C(Nc1ccc([C@@H](O)[C@H]2COCC(=O)N2Cc2ccccc2F)cc1)c1ccccc1
class: inactive
--
compound: CCCN1C(=O)Cc2cc(C(=O)NCc3ccc(C)c(C)c3)ccc21
class: inactive
--
compound: CCn1c(CO)nnc1C1CC(NC(=O)c2cnc3sccn3c2=O)C1 (stereo not given)
class: inactive
--
compound: CCCCn1c(=N)c(C(=O)NC2CCCCC2)cc2c(=O)n3cccc(C)c3nc21
class: active

---

# protocol.notes: qHTS Validation assay for Inhibitors of Plasmodium falciparum Dd2 growth in vitro; further: nearly all actives have a fitted effect of over 70% in size
# assay.context: P. falciparum Dd2 in RBCs, SYBR Green growth, 72 h; series mostly up to 28.7 µM
Hit rate of the full screen: of about 4,100 compounds, about 1,600 (39%) were called active. Another 25% or so got no clear call; they are omitted. The call rests on the fitted dose curve; in most records, active means well fitted inhibition curve with a large enough effect; inconclusive means small, poorly fitted or top-dose-only effect; inactive means no such curve, though single readings can be large or run the other way. Some of the results follow.
Possible outcomes: active, inactive

molecule: COc1ccccc1Cc1nc2ccccc2nc1SCC(=O)NCc1ccccc1Cl
class: active

molecule: Oc1ccc(Br)cc1Cn1nnc2ccccc21
class: inactive

molecule: COc1ccc(C2=C(Nc3ccc(C)cc3)c3ccccc3C2=O)cc1
class: active

molecule: CN1C(=O)CC(C(=O)O)C12CCN(Cc1cccc(C(=O)O)n1)CC2 (configuration not stated)
class: inactive

molecule: COc1ccc(OC)c(NC(=O)c2cc(-c3cc(Cl)ccc3O)n[nH]2)c1
class: active

molecule: CCN1C(=O)c2cccc3c(S(=O)(=O)Nc4ccccc4)ccc1c23
class: inactive

molecule: COc1cccc(/C=C/C(=O)Nc2ccc3nc(N4CCN(C)CC4)cc(C)c3c2)c1OC
class: active

---

# protocol.notes: qHTS Validation assay for Inhibitors of Plasmodium falciparum Dd2 growth in vitro; further: nearly all actives have a fitted effect of over 70% in size
# assay.context: P. falciparum Dd2 in RBCs, SYBR Green growth, 72 h; series mostly up to 28.7 µM
The campaign covered roughly 4,100 compounds. About 1,600 (39%) were called active. About 25% were inconclusive and are not listed. Calls follow the shape of the dose curve; as a rule, active = well fitted inhibition curve with a large enough effect; inconclusive = small, poorly fitted or top-dose-only effect; inactive = no such curve, though single readings can be large or run the other way. The list shows a part of the results.
Labels: True = active, False = inactive

compound: O=C(NC1CCN(c2cnn(CC3CC3)c(=O)c2)CC1)c1ccc2c(c1)OCO2
class: False
--
compound: CCOc1nc(N=C(N)N)nc2c(C)cccc12
class: True
--
compound: CC1CCN(c2nc3c(S(=O)(=O)c4ccccc4)nnn3c3ccc(Cl)cc23)CC1
class: True
--
compound: Cc1cc(C)cc(N2CCN(c3cc(C4CC(O)C4)nc(C)n3)CC2=O)c1 (stereo not given)
class: False
--
compound: COCCNC(=O)c1nc(-c2ccc([S+](C)(=O)[O-])cc2)c2ccccn12
class: False
--
compound: COc1cc2nc(NCc3ccccc3)n3nc(-c4ccccc4)nc3c2cc1OC
class: True
--
compound: CCOC(=O)CC(=O)CSc1ccc2nnc(-c3ccccc3)n2n1
class: False
--
compound: COc1cc2nc(NCc3ccccc3Cl)n3nc(-c4cccnc4)nc3c2cc1OC
class: True
--
compound: COc1ccc(N2CCN(c3cc(C4CC(N)C4)nc(N)n3)CC2(C)C)cc1 (stereo not given)
class: True
--
compound: COc1cccc(C(=O)N2CCC3(CC2)CCN(CCc2ccccc2)c2ccccc2O3)c1
class: False
--
compound: COc1ccccc1CNCC(O)(c1ccc(Cl)cc1)c1ccc(Cl)cc1
class: True
--
compound: COCCNc1ncccc1-c1noc([C@@H]2CCCN2Cc2ccccn2)n1
class: True
--
compound: Cc1ccc(S(=O)(=O)c2nnn3c2nc(N2CCN(c4ccccn4)CC2)c2ccccc23)cc1
class: True
--
compound: CC(C)c1ccc(N2CC(C(=O)NCc3cncn3C3CC3)CC2=O)cc1 (stereo not given)
class: False
--
compound: CCc1nc2cc(N3CCC(C(=O)NCc4ccc5c(c4)OCO5)CC3)cnc2nc1CC
class: False
--
compound: Cc1ccc(S(=O)(=O)N2CCN(C(=S)NCc3ccc4c(c3)OCO4)CC2)cc1
class: True
--
compound: O=C(NCc1ccccc1)N1CCC2(CC1)CC(N(C(=O)c1ccccc1)C1CC1)CCO2 (stereo not given)
class: False
--
compound: COc1ccc(C(=O)N2CCC[C@H]2c2nc(-c3ccccc3Cl)no2)cc1OC
class: False
--
compound: COc1ccc2c(c1)OC(C)(C)C(c1ccccc1)C2c1ccc(OCCN2CCCC2)cc1 (stereo not given)
class: True
--
compound: CN1c2cc(C(=O)Nc3ccc(F)cc3)ccc2C(=O)N2CCCCC21 (stereo not given)
class: False
--
compound: NC1CC(c2cc(N3CCCN(C(=O)c4ccoc4)CC3)ncn2)C1 (stereo not given)
class: False
--
compound: CCOC(=O)N1CCN(C(=O)c2ccccc2-c2ccccc2)CC1
class: False
--
compound: O=C(COc1ccc(F)cc1)N1CCC(c2noc(-c3ccncc3)n2)C1 (stereo not given)
class: False
--
compound: CN(C)C(=O)c1ccc(N2CCC(NCCC3=CC[C@H]4C[C@@H]3C4(C)C)CC2)cc1
class: False
--
compound: CCN(CC)C(=O)c1sc(NC(=O)C(C)Sc2nc(-c3ccccc3)cc(C(F)(F)F)n2)c(C(=O)OC)c1C (stereo not given)
class: True
--
compound: Cc1ccc(S(=O)(=O)N2CCC(C(=O)NCC3CC3)CC2)cc1
class: False
--
compound: COc1ccc(NC(=O)O[C@@H]2CC[C@]3(C)C(CC[C@@H](O)[C@H]3CC(=O)NCc3ccccc3OC)[C@]2(C)CO)cc1 (stereo not given in full)
class: True
--
compound: C=CCOC(=O)C1=C[C@@H](c2ccc(C(F)(F)F)cc2)[C@H](CCCO)[C@@H](OCC)O1
class: True
--
compound: CCOC(=O)c1sc(NC(=O)C(C)Sc2nc(-c3ccccc3)cc(C(F)(F)F)n2)c(C(=O)OC)c1C (stereo not given)
class: True
--
compound: COc1ccc(CNCC(O)(c2ccc(Cl)cc2)c2ccc(Cl)cc2)cc1
class: True
--
compound: COc1ccc(C(=O)N[C@@H]2CCC[C@@H]2C(=O)NCCCN(C)C)cn1
class: False
--
compound: CCCCOc1ccc(C(=O)N/C(=C\c2cccc([N+](=O)[O-])c2)C(=O)OC(C)C)cc1
class: True
--
compound: Cc1ccc(CNCC(O)(c2ccccc2)c2ccc(Cl)cc2)cc1 (stereo not given)
class: True
--
compound: COc1ccccc1Oc1ncccc1CNCc1c(F)cccc1Cl
class: False
--
compound: CC1(CCCCc2ccccc2)COc2ccc(C(=O)NC3CCC(O)CC3)cc2N1 (stereo not given)
class: False

---

# protocol.notes: qHTS Validation assay for Inhibitors of Plasmodium falciparum Dd2 growth in vitro; further: nearly all actives have a fitted effect of over 70% in size
# assay.context: P. falciparum Dd2 in RBCs, SYBR Green growth, 72 h; series mostly up to 28.7 µM
# Text: Malaria, a parasitic disease spread to humans through the bite of a Plasmodium infected Anopheles mosquito, continues to be a global health burden affecting millions of people, with an estimated 228 million cases and 405,000 deaths in 2018. Concerns about safety and limitations of current antimalarial treatments strongly emphasize the need to develop new therapeutic options. […]
The campaign covered roughly 4,100 compounds. About 1,600 (39%) were called active. About 25% were inconclusive and are not listed. The call rests on the fitted dose curve; in most records, active means well fitted inhibition curve with a large enough effect; inconclusive means small, poorly fitted or top-dose-only effect; inactive means no such curve, though single readings can be large or run the other way. The list shows a part of the results.
Outcomes: True for active, False for inactive

compound: CC(C)C(=O)OCC(=O)[C@@]12O[C@H](C3CCCCC3)O[C@@H]1C[C@H]1[C@@H]3CCC4=CC(=O)C=C[C@]4(C)[C@H]3[C@@H](O)C[C@@]12C
class: True

compound: CNC(=O)CCn1ncc2cc(OCc3ccccc3-c3ccccc3OC)ccc21
class: True

compound: COc1ccccc1CNS(=O)(=O)c1ccc2c(c1)CC(=O)N2C
class: False

compound: CCN(CC)S(=O)(=O)c1ccc(N2CCCCC2)c(NC(=O)C2=COCCO2)c1
class: True

compound: Cc1ccc(Oc2nc3c(c(=O)n(Cc4ccccc4)c(=O)n3C)n2C)cc1C
class: False

compound: CCOc1ccccc1C(=O)N1CC(=O)Nc2ccc(Cl)cc2C1c1ccccc1 (configuration not stated)
class: True

compound: O=C(CC1C(=O)N(Cc2ccccc2)C(=S)N1CCN1CCOCC1)Nc1ccc(F)cc1 (configuration not stated)
class: True

compound: CN(C)Cc1cc(C[C@@H]2C[C@H](NCc3ccccc3O)C2(C)C)no1
class: True

compound: COc1ccc(CCN(C)C(=S)Nc2cccc(C)c2)cc1OC
class: True

compound: O=S(=O)(Cc1ccccc1F)N1CCCC(Cn2c(C3CC3)nc3cccnc32)C1 (configuration not stated)
class: False

compound: O=c1[nH]c(C2CCN(S(=O)(=O)c3ccc4c(c3)OCCO4)CC2)nc2c1nnn2Cc1ccc(F)cc1
class: True

compound: O=c1[nH]c(C2CCN(S(=O)(=O)/C=C/c3ccccc3)CC2)nc2c1nnn2Cc1ccc(F)cc1
class: True

compound: COc1cccc(CNc2ccc3c(c2)nc(C)n3C)c1OC
class: False

compound: NNC(=O)CN1C(=O)Nc2ccc(Cl)cc2C1c1ccccc1 (configuration not stated)
class: False

compound: CN(C)Cc1cc(CC2(NCc3ccc(C#N)cc3)COC2)no1
class: False

compound: CCOC(=O)c1nnn(-c2nonc2-n2cccc2)c1CN1CCC(C(=O)OCC)CC1
class: True

compound: Cc1ccc(-c2csc3nc[nH]c(=O)c23)c(C)c1
class: False

compound: COc1cc(OC)c(C(=O)N2CCCC2)cc1OC
class: False

compound: CC1(COc2ccccc2)COc2ccc(C(=O)NCc3cnccn3)cc2N1 (configuration not stated)
class: False

compound: O=c1[nH]c(N2CCOCC2)nc2c1CCN(Cc1ccc(Cl)cc1F)CC2
class: True

compound: CC(NC(=O)Cc1cccc(F)c1)C(=O)N1CCN(c2ccccn2)CC1 (configuration not stated)
class: False

compound: CCOC(=O)c1nnn(-c2nonc2-n2cccc2)c1CN1CCCCC1
class: True

compound: Cc1nncn1C1CCN(S(=O)(=O)c2ccc(F)c(F)c2)CC1
class: False

compound: CN(C)S(=O)(=O)c1ccc(N2CCCC2)c(C(=O)NC(c2ccccc2)c2ccccc2)c1
class: False

compound: O=c1[nH]c(N2CCOCC2)nc2c1CCN(Cc1cc(Cl)ccc1F)CC2
class: True

compound: O=c1[nH]c(N2CCOCC2)nc2c1CCN(Cc1cc(F)c(F)cc1F)CC2
class: True

compound: O=C(Nc1ccc(Cl)cc1)c1nc2c(o1)CCN(Cc1ccc(F)cc1F)CC2
class: False

compound: O=C(c1ccc(F)cc1)N1CCC(c2nn(Cc3ccccc3)c(=O)[nH]2)CC1
class: False

compound: CC1CC(C)CN(C(=O)CNC(=O)c2sc3ccccc3c2Cl)C1 (configuration not stated)
class: False

compound: COc1cc2ccccc2cc1C(=O)N1CCCC(C(F)(F)F)C1 (configuration not stated)
class: True

compound: NC(=O)c1cccc(-c2ncc3c(n2)OCCN(Cc2ccc(F)cc2F)C3=O)c1
class: False

compound: COC(=O)c1cc(NC(=O)CC2C(=O)OCCN2Cc2ccccc2)cc(C(=O)OC)c1 (configuration not stated)
class: False

compound: COc1cc2ccccc2cc1C(=O)N1CC(C)CC(C)C1 (configuration not stated)
class: True

compound: CC1CC(C)CN(C(=O)c2ccc3ccccc3c2)C1 (configuration not stated)
class: True

compound: O=C1CCN(Cc2ccc(F)cc2F)CCCC(c2nc(-c3cnccn3)no2)CCN1 (configuration not stated)
class: False

compound: O=C(O)c1cccc(C2CCCN(C(=O)c3ccccc3-n3cccn3)C2)c1 (configuration not stated)
class: False

compound: CC(C)(C)c1ccc(C(=O)N2CCCC(c3nc4c(nnn4Cc4cccc(F)c4)c(=O)[nH]3)C2)cc1 (configuration not stated)
class: True

Source listed as PubChem BioAssay AID1347416.
